Test system: promyelocytic leukemia HL 60
TEST_DESCRIPTION: In vitro cytotoxic activity (Calcein AM, 72 hours), HL 60
CONDITION_INFO: Homo sapiens, HL-60, 72 h, read-out: Cytotoxicity IC50 HL60

MOLECULE | TARGET_UNDER_TEST | IC50
CC(C)n1cnc2c(NCc3ccccc3)nc(NC3CCC(N)CC3)nc21 (stereo not drawn) | promyelocytic leukemia HL 60 | 47 µM
CCC(CO)Nc1nc(NCc2cc(Cl)ccc2N)c2ncn(C(C)C)c2n1 (stereo not drawn) | promyelocytic leukemia HL 60 | 5.4 µM
CCCn1cnc2c(NCc3ccccc3N)nc(NC(CC)CO)nc21 (stereo not drawn) | promyelocytic leukemia HL 60 | 8.3 µM
CC(C)n1cnc2c(NCc3ccccc3N)nc(N[C@H]3CC[C@H](O)CC3)nc21 | promyelocytic leukemia HL 60 | 36 µM
CCC(CO)Nc1nc(NCc2cc(Cl)ccc2N)c2ncn(C3CCCCC3)c2n1 (stereo not drawn) | promyelocytic leukemia HL 60 | 31 µM
Cc1cccc(CNc2nc(NC3CCC(N)CC3)nc3c2ncn3C(C)C)c1N (stereo not drawn) | promyelocytic leukemia HL 60 | 23 µM
Nc1ccccc1CNc1nc(NC2CCC(N)CC2)nc2c1ncn2C1CCCCC1 (stereo not drawn) | promyelocytic leukemia HL 60 | 24 µM
Cn1cnc2c(NCc3ccccc3N)nc(NC3CCC(N)CC3)nc21 (stereo not drawn) | promyelocytic leukemia HL 60 | 22 µM
CCC(CO)Nc1nc(NCc2ccccc2N)c2ncn(C(C)C)c2n1 (stereo not drawn) | promyelocytic leukemia HL 60 | 6.7 µM
